Could you please report measured IC50 for the items listed next?
# Tested on: L1210
# test-name: Cytotoxicity was determined in vitro in murine leukemia L1210 Cells
# Type: functional
# assay-context: Mus musculus, read-out: ID50 (the source's name)
Numbers only; they are read as nM.

Retrieve IC50 on L1210; query `Cc1c2cc[n+](C)cc2c(C)c2c3c([nH]c12)C=CC(=O)[C@@]31O[C@@H]2[C@H](O1)[C@@H](CO)O[C@H]2n1cnc2c(N)ncnc21`
800

Retrieve IC50 on L1210; query `Cc1c2cc[n+](C)cc2c(C)c2c3c([nH]c12)C=CC(=O)[C@@]31O[C@@H]2[C@H](O1)[C@@H](CO)O[C@H]2n1cnc2c(O)nc(N)nc21`
800

Retrieve IC50 on L1210; query `Cc1c2cc[n+](C)cc2c(C)c2c3c([nH]c12)C=CC(=O)[C@@]31O[C@@H]2[C@H](O1)[C@@H](COP(=O)(O)O)O[C@H]2n1ccc(=O)[nH]c1=O`
1100

# credit: ChEMBL document CHEMBL1123327
